test system: Huh7 cells expressing a subgenomic RNA replicon of Con1 (genotype 1b) sequence origin; experiment: microbe, parasite or virus in culture; conditions: Hepatitis C virus, Huh-7
assay readout: IC90 (µM)
Answers are plain numbers, in µM.

molecule	assay readout	unit descriptor	quantitative readout
CSc1ccc(N2CN(C)Cc3cc(Br)ccc32)cc1C	IC90	µM	15.5
CSc1ccc(Oc2ccc(S(N)(=O)=O)cc2CN(C)C)cc1C [UK-416244, reference compound]	IC90	µM	6.17

Which IC90 value belongs to `CSc1ccc(Oc2ccc(S(N)(=O)=O)cc2CN2CCN(C)CC2)cc1C` ?
10.5

====

Hi there, I'd appreciate the recorded CC50 for every entry that follows.
experiment: in vitro; settings: human, CC50 (uM) [SG]

Solved cases below.
sample smiles	assay readout	result
CSc1ccc(Oc2ccc(S(N)(=O)=O)cc2CN(C)C[C@H](C)O)cc1C	CC50	> 50 µM
CNCc1cc(S(N)(=O)=O)ccc1Oc1ccc([N+](=O)[O-])c(C)c1	CC50	> 50 µM
CNc1cc(S(N)(=O)=O)ccc1Oc1ccc(SC)c(C)c1	CC50	> 50 µM

# query: CC50 of entry `CSc1ccc(Oc2ccc(C#N)cc2CN(C)C)cc1C`
> 50 µM

====

assay: in vitro; conditions: human, CC50 (uM) [SG]
Provide the reported log10 of CC50 of each item.
Annotation: log10 of CC50, µM basis.

Some solved cases for reference:
molecule	assay readout	quantitative readout
CSc1ccc(Oc2ccc(S(N)(=O)=O)cc2CN2CCN(c3ccccc3)CC2)cc1C [Compound 93]	log10 of CC50	1.63
CCCCC(=O)Nc1ccc2c(c1)[C@@H](NC)CC[C@H]2c1ccc(Cl)c(Cl)c1 [Sertraline A-Ring Reverse Pentanamide]	log10 of CC50	0.64
CN[C@H]1CC[C@@H](c2ccc(Cl)c(Cl)c2)c2ccc(C(=O)Nc3ccccc3)cc21 [Sertraline A-Ring Benzamide]	log10 of CC50	0.59
CN[C@H]1CC[C@@H](c2ccc(Cl)c(Cl)c2)c2ccc(C[S+](C)[O-])cc21 (stereo partly drawn)	log10 of CC50	1.17
CCCCNS(=O)(=O)c1ccc(Oc2ccc(SC)c(C)c2)c(CN(C)C)c1 [Compound 12]	log10 of CC50	1.26

Give one value of log10 of CC50 per listed molecule.
1. CNC1CCC(c2ccc(C(F)(F)F)cc2)c2ccccc21 (stereo not drawn) [Sertraline B-Ring para-Trifluoromethane]
2. CN(C)[C@H]1CC[C@@H](c2ccc(Cl)c(Cl)c2)c2ccccc21 [N,N-Dimethyl Sertraline]

[1.15, 1.81]

Go through the list and state log10 of CC50 for each entry.
1. CN[C@H]1CC[C@@H](c2ccc(Cl)c(Cl)c2)c2ccc(S(=O)(=O)NCCO)cc21 [Sertraline Sulfonamide Ethanol]
2. CNCc1cc(S(N)(=O)=O)ccc1Oc1ccc(SC)c(C)c1 [Compound 48]
3. CSc1ccc(Oc2ccc(S(=O)(=O)Nc3ccccc3)cc2CN(C)C)cc1C [Compound 49]

1: 1.14; 2: 1.60; 3: 1.03

I have 6 molecules here; please give me log10 of CC50 for each one.
1. CSc1ccc(Oc2ccc(S(N)(=O)=O)cc2CN2CCN(c3ccncc3)CC2)cc1C [Compound 91]
2. CN[C@H]1CC[C@@H](c2ccc(Cl)c(Cl)c2)c2ccc(I)cc21 [Sertraline Iodide]
3. CN[C@H]1CC[C@@H](c2ccc(Cl)c(Cl)c2)c2ccc([N+](=O)[O-])cc21 [Nitro Sertraline]
4. CN[C@H]1CC[C@@H](c2ccc(Cl)c(Cl)c2)c2ccc(N)cc21 [Sertraline Aniline]
5. CN[C@H]1CC[C@@H](c2ccc(Cl)c(Cl)c2)c2ccc(NC(C)=O)cc21 [Sertraline A-Ring Reverse Carboxamide]
6. CN[C@H]1CC[C@@H](c2ccc(Cl)c(Cl)c2)c2ccc(CS(C)(=O)=O)cc21

1: 0.99; 2: 0.95; 3: 0.90; 4: 0.94; 5: 1.08; 6: 1.11
